Source listed as PubChem BioAssay (NCI).

# TGI per record follows
System: EKVX NSCLC
PROCEDURE_DETAILS: NCI tumour cell line growth inhibition, 48 h

// known answers, use as guide
Q: Find the recorded TGI belonging to "CCCC(=O)Oc1ccc2c(C)cc(=O)oc2c1OC(=O)CCC" and report it.
Ans: > 100 µM

Q: Find the recorded TGI belonging to "CC(=O)c1ccc2c(c1)N(CCCN1CCN(CCO)CC1)c1ccccc1C2" and report it.
Ans: 33.6 µM

Q: Find the recorded TGI belonging to Brc1ccc2c(c1)C1C(CO2)C(c2ccccc2)=NN1c1ccccc1 (configuration not stated) and report it.
Ans: > 100 µM

Q: Find the recorded TGI belonging to "O=C1CCCCC(=O)Nc2ccccc2N1" and report it.
Ans: > 100 µM

Q: Find the recorded TGI belonging to "CC(=O)[C-](C(C)=O)c1ccccc1.CC(=O)[C-](C(C)=O)c1ccccc1.CC[O-].CC[O-].[Ti+4]" and report it.
Ans: > 100 µM

Next:
Q: Find the recorded TGI belonging to "COc1ccc(/C=C(/C)[N+](=O)[O-])cc1" and report it.
Ans: 4.91 µM

Q: Find the recorded TGI belonging to "CCOP(=O)(OCC)[C@]12C[C@@H](C)C=C[C@H]1COC2=O" and report it.
Ans: > 100 µM

Q: Find the recorded TGI belonging to "Cn1c2ccccc2c(=O)c2c([N+](=O)[O-])ccc(NCCN)c21" and report it.
Ans: 31 µM

Q: Find the recorded TGI belonging to CCc1cccc(C(C)CC)c1NC(=O)C(=O)C(CC(=O)Nc1ccc(Cl)c(Cl)c1)C(=O)OC (configuration not stated) and report it.
Ans: > 100 µM

Q: Find the recorded TGI belonging to COc1cc(NCC2COc3c(ccc(OC)c3OC)C2=O)c([N+](=O)[O-])cc1OC (configuration not stated) and report it.
Ans: > 100 µM
